Read-out: Monocyte Chemoattractant Protein-1 (MCP1), CCL2 (gene 6347)
Experiment: BSK_3C_MCP1: BioMAP Diversity Plus: 3C Assay for Monocyte Chemoattractant Protein-1 (MCP1) Biomarker Activity (AID 2283017)
Settings: primary human endothelial cells (HUVEC); actives raise or lower the signal
Calls of active or inactive are those of the source. The calls were made as follows: active = hit-call score of the fitted dose curve at least 0.9, where 1 is the maximum; inactive = score below 0.9.
Classes used: 1 (active), 0 (inactive)

COMPOUND | DISCRETE LABEL
OCCN(CCO)CCO | 0
c1ccc2sc(SNC3CCCCC3)nc2c1 | 0
CCOC(=O)CC(=O)CCl | 0
N#Cc1cccnc1 | 0
CC(C)N(C(=O)CCl)c1ccccc1 | 1
O=C(Cc1ccccc1)OCCc1ccccc1 | 0
CC(C)(C)c1ccccc1O | 0
Cc1cc(Cl)ccc1N | 0
CCOP(=O)(OCC)OC(=CCl)c1ccc(Cl)cc1Cl | 1
CC(C=O)Cc1ccc2c(c1)OCO2 (configuration not stated) | 0
CCCCCCCCCCCCc1cccc(S(=O)(=O)O)c1 | 0
CCCCN(CCCC)C(=S)[S-].CCCCN(CCCC)C(=S)[S-].[Ni+2] | 0
C#CCOC(=O)/C=C(C)/C=C/CC(C)CCCC(C)C (configuration not stated) | 1
O=[N+]([O-])c1cccc2ccccc12 | 0
CCOC(=O)CCN(SN(C)C(=O)Oc1cccc2c1OC(C)(C)C2)C(C)C | 1
Clc1cccc(Cl)c1Cl | 0
Oc1c(Cl)cc(Cl)cc1Cl | 0

###

Target: Myc proto-oncogene protein (Homo sapiens)
Test: ATG_Myc_CIS: Attagene CIS-FACTORIAL HepG2 Assay for human Myelocytomatosis (Myc) Proto-Oncogene Transcription Factor (AID 2282990)
Conditions: HepG2, Attagene cis-reporter transcription factor activity; actives raise or lower the signal
Protocol: ATG_CIS is a cell-based, multiplexed-readout assay that uses HepG2, a human liver cell line, with measurements taken at 24 hours after chemical dosing in a 24-well plate.ATG_Myc_CIS is one of 52 assay component(s) measured or calculated from the ATG_CIS assay. […] This assay endpoint, ATG_Myc_CIS, was analyzed with bidirectional fitting relative to DMSO as the negative control and baseline of activity. […]
Calls of active or inactive are those of the source. How the source made its calls: active means hit-call score of the fitted dose curve at least 0.9, where 1 is the maximum; inactive means score below 0.9.
Classes used: active, inactive

MOLECULE | DISCRETE LABEL
ClCc1ccccc1Cl | inactive
C[CH2][Hg][S]c1ccccc1C(=O)O | inactive
CN(C)[C@@H]1C(=O)C(C(N)=O)=C(O)[C@@]2(O)C(=O)C3=C(O)c4c(O)ccc(Cl)c4[C@@](C)(O)[C@H]3C[C@@H]12 | inactive
CC(=O)CN(CC(C)=O)N=O | inactive
O=S(=O)(C(Cl)(Cl)Cl)C(Cl)(Cl)Cl | active
COP(=S)(OC)Oc1cc(Cl)c(I)cc1Cl | inactive
OC(Cc1ccccc1Cl)(Cn1cncn1)C1(Cl)CC1 (configuration not stated) | inactive
NC(=O)c1ccc(N)nc1 | inactive
CC(C)(C)c1ccccc1O | inactive
N#Cc1cccnc1 | inactive
CCCSP(=S)(OCC)Oc1ccc(SC)cc1 (configuration not stated) | inactive
CCOC(=O)CCN(SN(C)C(=O)Oc1cccc2c1OC(C)(C)C2)C(C)C | inactive
COC(=O)c1cc(Oc2ccc(Cl)cc2Cl)ccc1[N+](=O)[O-] | inactive
CC(C=O)Cc1ccc2c(c1)OCO2 (configuration not stated) | inactive
N#CCCC(Br)(C#N)CBr (configuration not stated) | inactive
CCOC(=O)Cc1ccccc1 | inactive
CC(C)(C)c1ccc(CCOc2ncnc3ccccc23)cc1 | inactive
CN(CCCC(O)c1cccnc1)N=O (configuration not stated) | inactive
CC(O)(CS(=O)(=O)c1ccc(F)cc1)C(=O)Nc1ccc(C#N)c(C(F)(F)F)c1 (configuration not stated) | inactive
N#CS | inactive
CC(C)N(C(=O)CCl)c1ccccc1 | inactive
Nc1ccc(Br)cc1 | inactive
O=c1nc(O)n(Cl)c(=O)n1Cl | inactive
CC1(C)[C@H](C(=O)O[C@H](C#N)c2cccc(Oc3ccccc3)c2)[C@@H]1/C=C(\Cl)C(F)(F)F | inactive
O=C1C[C@@H]2OCC=C3CN4CC[C@]56c7ccccc7N1[C@H]5[C@H]2[C@H]3C[C@H]46 | inactive
CCOC(=O)CC(=O)CCl | inactive
OC[C@@H](O)[C@H]1O[C@@H]2O[C@H](C(Cl)(Cl)Cl)O[C@@H]2[C@H]1O | inactive
C[C@H]1C(=O)O[C@@H]2CCN3CC=C(COC(=O)[C@](C)(O)[C@]1(C)O)[C@H]23 | inactive
OCCCCO | inactive
c1ccc2sc(SNC3CCCCC3)nc2c1 | active
O=C(NC(=O)c1c(F)cccc1F)Nc1cc(Cl)c(F)c(Cl)c1F | inactive
COCC(=O)N(c1c(C)cccc1C)[C@H](C)C(=O)OC | inactive
CCNc1nc(NCC)nc(SC)n1 | inactive
CC(C)(c1ccc(O)c(-c2ccccc2)c1)c1ccc(O)c(-c2ccccc2)c1 | inactive
CN(C)C(=S)S | inactive
CNC(=O)CSP(=O)(OC)OC | inactive
O=S(=O)(c1ccc(Cl)cc1)c1cc(Cl)c(Cl)cc1Cl | inactive

###

Read-out: Monocyte Chemoattractant Protein-1 (MCP1), CCL2 (gene 6347)
Assay: BSK_4H_MCP1: BioMAP Diversity Plus: 4H Assay for Monocyte Chemoattractant Protein-1 (MCP1) Biomarker Activity (AID 2283018)
Details: primary human endothelial cells (HUVEC); actives raise or lower the signal
Calls of active or inactive are those of the source. The calls were made as follows: active = hit-call score of the fitted dose curve at least 0.9, where 1 is the maximum; inactive = score below 0.9.
Classes used: True for active, False for inactive

COMPOUND STRUCTURE STRING | DISCRETE LABEL
O=C(N[C@H]1CN2CCC1CC2)c1ccc2c(c1)OCCO2 | False
CCOP(=O)(OCC)SCCSCC | False
O=S(=O)(c1ccc(Cl)cc1)c1cc(Cl)c(Cl)cc1Cl | False
O=C(O)COc1cc(Cl)c(Cl)cc1Cl | False
CCCCCCCCCCCCc1cccc(S(=O)(=O)O)c1 | False
COc1ccccc1N | False
Cc1ccccc1OP(=O)(Oc1ccccc1C)Oc1ccccc1C | True

###

Read-out: Interleukin-8 (IL8), CXCL8 (gene 3576)
Test: BSK_SAg_IL8: BioMAP Diversity Plus: SAg Assay for Interleukin-8 (IL8) Biomarker Activity (AID 2283094)
Settings: primary human HUVEC with PBMC; actives raise or lower the signal
Active and inactive are the calls of the source. Rule for the calls: active = hit-call score of the fitted dose curve at least 0.9, where 1 is the maximum; inactive = score below 0.9.
Classes used: T = active, F = inactive

MOLECULE | DISCRETE LABEL
CCOP(=O)(OCC)SCCSCC | F
O=C(CCl)NCO | F
Cc1ccc(OP(=O)(Oc2ccc(C)cc2C)Oc2ccc(C)cc2C)c(C)c1 | T
O=C(Cc1ccccc1)OCCc1ccccc1 | F
Cc1ccccc1OP(=O)(Oc1ccccc1C)Oc1ccccc1C | T
O=[N+]([O-])c1ccc(Nc2ccccc2)cc1 | F
Cc1cc(C)cc(C)c1 | F
CC1(C)[C@H](C(=O)O[C@H](C#N)c2cccc(Oc3ccccc3)c2)[C@@H]1/C=C(\Cl)C(F)(F)F | F
Cc1cc(Cl)ccc1N | F
COCC(=O)N(c1c(C)cccc1C)[C@H](C)C(=O)OC | F
CCOC(=O)CC(=O)CCl | T
OC(Cc1ccccc1Cl)(Cn1cncn1)C1(Cl)CC1 (stereo unspecified) | F
CC(C)=CC1C(C(=O)OCc2cccc(Oc3ccccc3)c2)C1(C)C (stereo unspecified) | F
Nc1ccc(N)cc1 | F
OCCCCO | F
C#CCOC(=O)/C=C(C)/C=C/CC(C)CCCC(C)C (stereo unspecified) | F

###

Assay: ATG_CMV_CIS: Attagene CIS-FACTORIAL HepG2 Assay for human CMV (Internal Marker) (AID 2282928);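 also: endpoint acts as a background internal control marker rather than a target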
Details: HepG2 CMV promoter reporter, transcription factor profiling; actives raise or lower the signal
Activity calls are given as the source filed them. How the source made its calls: active means hit-call score of the fitted dose curve at least 0.9, where 1 is the maximum; inactive means score below 0.9.
Classes used: T for active, F for inactive

COMPOUND | DISCRETE LABEL
O=S(=O)(C(Cl)(Cl)Cl)C(Cl)(Cl)Cl | F
O=C(Nc1ccc(Br)cc1)c1cc(Br)cc(Br)c1O | F
N#Cc1ccncc1 | F
Cc1cc(Cl)ccc1O | F
NC(=O)c1ccc(N)nc1 | F
c1ccc(-c2cccc(-c3ccccc3)c2)cc1 | F
BrCCCCBr | F
CC(C)(c1ccccc1)c1cc(-n2nc3ccccc3n2)c(O)c(C(C)(C)c2ccccc2)c1 | F
Cc1c([N+](=O)[O-])c(C)c([N+](=O)[O-])c(C(C)(C)C)c1[N+](=O)[O-] | T
CCOP(=O)(OCC)OC(=CCl)c1ccc(Cl)cc1Cl | F
BrCc1ccc(Br)cc1 | F
O=C(O)CC(O)(CC(=O)O)C(=O)O | F
C=CC(=O)OCC(COC(=O)C=C)(COC(=O)C=C)COC(=O)C=C | T
[F][Sn]([c]1ccccc1)([c]1ccccc1)[c]1ccccc1 | T
O=C1C=CC(=O)c2ccccc21 | F
N#Cc1ccccc1Cl | F
C=CCc1ccccc1O | F
Cc1cc(-c2cc(C)c(N)c(C)c2)cc(C)c1N | T
CCC[N+](CCC)(CCC)CCC | F
O=NN1CCCCCCC1 | F
Cc1cccc(OP(=O)(Oc2cccc(C)c2)Oc2cccc(C)c2)c1 | F
CCCCC(CC)COC(=O)Cl (centres undefined) | F
O=C(CCl)NCO | F
CCOc1ccc(N)cc1 | F
CC(C)O.CC(C)O.OCCN(CCO)CCO.OCCN(CCO)CCO.[Ti] | F
CCCCCCCCCCCCN(C)C | T
CC1(C)[C@H](/C=C2\CCSC2=O)[C@@H]1C(=O)OCc1coc(Cc2ccccc2)c1 | F
C=CC(=O)NC(C)(C)CC(C)=O | F
CCCCN(CCCCO)N=O | F
